Listing: sfGFP reporter fluorescence of selected variants
B1: library; a variant is named by its letters at X, in order (parent)
chain: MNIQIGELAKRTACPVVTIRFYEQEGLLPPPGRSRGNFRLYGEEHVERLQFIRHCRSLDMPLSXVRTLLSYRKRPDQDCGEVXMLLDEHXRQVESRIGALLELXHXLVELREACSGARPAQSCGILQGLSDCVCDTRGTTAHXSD

# Variants of: B1
# experimentDescription: sfGFP reporter fluorescence (15 h) (µM FITC); higher = higher leak
# studyConditions: library round: Round 3b; ligand: none

// solved cases for sfGFP reporter fluorescence follow
KFAKET | 0.0549
KNAVEP | 0.0529
DIATAR | 0.0427
KFITET | 0.0451
DNATAT | 0.0419

For "DFIVET" the variant record lists sfGFP reporter fluorescence as 0.0435

For "DFATET" the variant record lists sfGFP reporter fluorescence as 0.0435

For "DIATHR" the variant record lists sfGFP reporter fluorescence as 0.0464

For "DIATET" the variant record lists sfGFP reporter fluorescence as 0.0419

For "DNAVET" the variant record lists sfGFP reporter fluorescence as 0.0438

For "KNAKAT" the variant record lists sfGFP reporter fluorescence as 0.0671

For "KNAVET" the variant record lists sfGFP reporter fluorescence as 0.0522

For "KFAVHR" the variant record lists sfGFP reporter fluorescence as 0.0469
